test: Metabolic stability in human hepatic microsome; assay type: in vitro ADME; details: microsomes, pH 7.4; human hepatic microsome, NADPH(+); read-out: CL NADPH(+)
Starred links: 1 amine or outer side, 2 acyl side, 3 side chain; linkers in the order of their positions; H or OH if unused. Positions of bridges follow the written chain, without caps; N, C: chain ends. Non-standard residues stand in square brackets, D forms with d. Residues, ends and D or L forms follow the SMILES beside them. *: point of attachment. Phe(3-(CH2)4CO) = O=C([C@H](Cc1cccc(CCCCC(=O)[*:3])c1)N[*:1])[*:2]; NMeF = CN[C@@H](Cc1ccccc1)C(=O)O; NMeI = CC[C@H](C)[C@H](NC)C(=O)O; NMeβAla = CN(CCC(=O)[*:2])[*:1]; NMeL = CN[C@@H](CC(C)C)C(=O)O; NMeV = CN[C@H](C(=O)O)C(C)C; NMeA = CN[C@@H](C)C(=O)O; Piperidide = C1CCN(*)CC1; dNMeA = CN[C@H](C)C(=O)O; Sar = CNCC(=O)O; tBu = CC(C)(C)*
Kindly state log10 microsomal CLint at 1 uM for each of the entries shown.
log10 microsomal CLint at 1 uM, µL/min/mg

Worked examples follow.
COMPOUND: CC[C@H](C)[C@@H]1NC(=O)[C@H](CC(C)C)N(C)C(=O)CCCCc2cccc(c2)C[C@@H](C(=O)N2CCCCC2)NC(=O)[C@H](CC(C)C)N(C)C(=O)[C@H](C)N(C)C(=O)[C@H]([C@@H](C)O)NC(=O)[C@H](CC(C)C)N(C)C(=O)[C@H](COC(C)(C)C)NC(=O)[C@H](Cc2ccccc2)N(C)C(=O)[C@H](Cc2ccccc2)N(C)C1=O [DP-862] ([NMeL]I[NMeF][NMeF]S(tBu)[NMeL]T[NMeA][NMeL][Phe(3-(CH2)4CO)]-Piperidide; lactam N-10)
MEASURED_VALUE: 2.07
//
COMPOUND: CC[C@H](C)[C@@H]1NC(=O)[C@H](CC(C)C)N(C)C(=O)[C@H](Cc2ccccc2)NC(=O)CCN(C)C(=O)C[C@@H](C(=O)N2CCCCC2)NC(=O)[C@H](CC(C)C)NC(=O)[C@H](Cc2ccccc2)NC(=O)[C@H](Cc2ccccc2)N(C)C(=O)[C@H](CC(C)C)NC(=O)[C@H]([C@@H](C)O)NC1=O [DP-334] ([NMeβAla]F[NMeL]ITL[NMeF]FLD-Piperidide; lactam N-10)
MEASURED_VALUE: 1.90
//
COMPOUND: CC(C)C[C@@H]1NC(=O)[C@@H](C)N(C)C(=O)C[C@@H](C(=O)N2CCCCC2)NC(=O)[C@H]([C@@H](C)O)NC(=O)[C@H](CC(C)C)N(C)C(=O)[C@H](CC(C)C)N(C)C(=O)[C@H](Cc2ccccc2)NC(=O)[C@H](CC(C)C)N(C)C(=O)[C@H](Cc2ccccc2)N(C)C1=O [DP-343] ([dNMeA]L[NMeF][NMeL]F[NMeL][NMeL]TD-Piperidide; lactam N-9)
MEASURED_VALUE: 2.63
//
COMPOUND: CC[C@H](C)[C@@H]1NC(=O)[C@H](Cc2ccccc2)N(C)C(=O)[C@H](C)N(C)C(=O)CN(C)C(=O)[C@H]([C@@H](C)O)NC(=O)[C@H](C)N(C)C(=O)[C@H](C(C)C)N(C)C(=O)[C@H](C)NC(=O)CCN(C)C(=O)C[C@@H](C(=O)N(C)[C@@H](Cc2ccccc2)C(=O)N(C)[C@@H](Cc2ccccc2)C(=O)N[C@@H](C)C(=O)N2CCCCC2)NC1=O [DP-498] ([NMeβAla]A[NMeV][NMeA]T[Sar][NMeA][NMeF]ID[NMeF][NMeF]A-Piperidide; lactam N-10)
MEASURED_VALUE: 0.95

# evaluate next
Request: // returns reported log10 microsomal CLint at 1 uM for input CC[C@H](C)[C@H]1C(=O)N[C@@H]([C@@H](C)O)C(=O)N(C)CC(=O)N[C@H](C(=O)N2CCCCC2)CC(=O)N[C@H](C(C)C)C(=O)N[C@@H](CC(C)C)C(=O)N(C)[C@@H](CC(C)C)C(=O)N(C)[C@@H](Cc2ccccc2)C(=O)N[C@@H](C)C(=O)N(C)[C@@H](Cc2ccccc2)C(=O)N(C)[C@@H](CC(C)C)C(=O)N1C [DP-232] ([dV]L[NMeL][NMeF]A[NMeF][NMeL][NMeI]T[Sar]D-Piperidide; lactam N-11)
Result: 1.89

Recorded values, source patent US9409952B2.
